tested-target: KAT6A (Homo sapiens)
Construct: expressed in transfected cells; host or cells: HeLa
Sequence (Q92794 whole entry): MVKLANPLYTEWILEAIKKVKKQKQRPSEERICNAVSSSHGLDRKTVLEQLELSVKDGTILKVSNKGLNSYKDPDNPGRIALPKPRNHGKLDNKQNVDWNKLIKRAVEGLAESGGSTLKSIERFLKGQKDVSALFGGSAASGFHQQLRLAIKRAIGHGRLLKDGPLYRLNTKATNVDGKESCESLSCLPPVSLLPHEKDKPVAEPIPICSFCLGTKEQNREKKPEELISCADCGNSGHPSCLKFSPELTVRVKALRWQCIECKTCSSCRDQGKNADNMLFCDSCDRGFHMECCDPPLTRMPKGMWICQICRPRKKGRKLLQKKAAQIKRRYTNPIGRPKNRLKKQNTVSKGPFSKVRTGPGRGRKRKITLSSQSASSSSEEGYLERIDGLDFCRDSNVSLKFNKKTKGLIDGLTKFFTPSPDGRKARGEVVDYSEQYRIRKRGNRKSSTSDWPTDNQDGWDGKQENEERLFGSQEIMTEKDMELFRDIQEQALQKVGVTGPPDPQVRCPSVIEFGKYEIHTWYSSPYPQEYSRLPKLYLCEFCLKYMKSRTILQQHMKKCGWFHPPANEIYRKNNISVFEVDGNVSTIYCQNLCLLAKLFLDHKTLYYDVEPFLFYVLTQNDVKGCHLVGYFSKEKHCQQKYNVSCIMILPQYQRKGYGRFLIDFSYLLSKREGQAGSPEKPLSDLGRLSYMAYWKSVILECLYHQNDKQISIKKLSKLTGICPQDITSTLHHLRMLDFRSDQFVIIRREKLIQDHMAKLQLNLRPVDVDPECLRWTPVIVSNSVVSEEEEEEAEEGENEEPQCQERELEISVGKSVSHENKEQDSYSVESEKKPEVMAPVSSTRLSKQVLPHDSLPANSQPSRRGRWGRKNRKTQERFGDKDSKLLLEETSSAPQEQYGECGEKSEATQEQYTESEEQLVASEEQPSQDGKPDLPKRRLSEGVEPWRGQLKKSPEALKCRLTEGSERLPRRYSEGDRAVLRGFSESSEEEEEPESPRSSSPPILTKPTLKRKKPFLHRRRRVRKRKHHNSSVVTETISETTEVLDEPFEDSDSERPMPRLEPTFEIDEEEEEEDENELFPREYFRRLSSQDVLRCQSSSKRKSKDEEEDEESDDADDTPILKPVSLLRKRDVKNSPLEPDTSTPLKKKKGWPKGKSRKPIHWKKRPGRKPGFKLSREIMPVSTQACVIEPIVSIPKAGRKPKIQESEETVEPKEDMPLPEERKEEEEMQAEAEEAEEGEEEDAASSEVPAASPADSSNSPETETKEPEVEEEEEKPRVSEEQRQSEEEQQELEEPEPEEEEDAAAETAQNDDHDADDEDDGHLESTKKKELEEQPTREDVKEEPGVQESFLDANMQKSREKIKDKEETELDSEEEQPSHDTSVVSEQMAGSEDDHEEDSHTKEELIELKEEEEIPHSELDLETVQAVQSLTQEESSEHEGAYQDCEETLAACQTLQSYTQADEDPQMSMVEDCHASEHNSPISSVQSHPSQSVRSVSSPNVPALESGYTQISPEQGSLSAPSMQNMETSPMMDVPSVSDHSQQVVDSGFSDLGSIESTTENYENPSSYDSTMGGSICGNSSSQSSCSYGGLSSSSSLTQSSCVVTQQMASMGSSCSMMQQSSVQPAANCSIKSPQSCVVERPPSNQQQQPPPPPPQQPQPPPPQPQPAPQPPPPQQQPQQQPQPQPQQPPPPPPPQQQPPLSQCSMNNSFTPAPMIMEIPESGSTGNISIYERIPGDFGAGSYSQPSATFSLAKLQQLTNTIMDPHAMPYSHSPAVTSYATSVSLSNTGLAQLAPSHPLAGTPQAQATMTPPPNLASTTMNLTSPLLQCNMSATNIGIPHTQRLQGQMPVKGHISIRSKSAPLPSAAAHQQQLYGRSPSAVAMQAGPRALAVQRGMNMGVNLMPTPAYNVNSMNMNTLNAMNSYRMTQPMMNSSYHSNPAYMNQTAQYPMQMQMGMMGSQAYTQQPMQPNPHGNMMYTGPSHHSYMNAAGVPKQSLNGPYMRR
test-description: HiBit KAT6A Degradation Assessment
Assay type: cell-based
condition-context: HeLa, HeLa cells with a HiBit tagged KAT6A, 24 h of treatment
So I've got a bunch of molecules here, and I need their Dmax values.

Take a look at these entries with their results.
molecule	Dmax
COc1c(N2CC3(CCN(CC4CCN(c5ccc6c(c5)C(=O)N(C5CCC(=O)NC5=O)C6=O)CC4)CC3)C2)cccc1S(=O)(=O)Nc1noc2cc(Cn3cccn3)c3c(c12)OCC3 (centres unmarked)	> 75%
COc1c(N2CC3(CCN(C[C@@H]4CCN(c5ccc6c(c5)CN([C@H]5CCC(=O)NC5=O)C6=O)C4)CC3)C2)cccc1S(=O)(=O)Nc1noc2cc(Cn3cccn3)c3c(c12)OCC3	> 75%
COc1c(N2CC3(CCN(CC4CCN(c5cccc6c5C(=O)N(C5CCC(=O)NC5=O)C6=O)CC4)CC3)C2)cccc1S(=O)(=O)Nc1noc2cc(Cn3cccn3)c3c(c12)OCC3 (centres unmarked)	> 75%
O=C1CC[C@H](N2Cc3cc(N4CC[C@@H](CN5CCC6(CC5)CN(c5cccc(S(=O)(=O)Nc7noc8cc(Cn9cccn9)c9c(c78)OCC9)c5)C6)C4)ccc3C2=O)C(=O)N1	50 to 75%

Okay, next one:
Would you kindly share the measured Dmax for "O=C1CC[C@H](N2Cc3cc(N4CC[C@@H](CN5CCC6(CC5)CN(c5ccc(S(=O)(=O)Nc7noc8cc(Cn9cccn9)c9c(c78)OCC9)cc5)C6)C4)ccc3C2=O)C(=O)N1" ?
50 to 75%

Data provenance is patent US20250161289A1.
